molecular target: cloned human dopamine D3 receptors (Homo sapiens, UniProt P35462); construct: expressed in transfected cells; membrane homogenate; assay: [N-Methyl-3H]Spiroperidol binding to cloned human dopamine D3 receptors (Protocol 1); settings: Table 2; read-out: D3K1
Sequence (P35462 whole entry): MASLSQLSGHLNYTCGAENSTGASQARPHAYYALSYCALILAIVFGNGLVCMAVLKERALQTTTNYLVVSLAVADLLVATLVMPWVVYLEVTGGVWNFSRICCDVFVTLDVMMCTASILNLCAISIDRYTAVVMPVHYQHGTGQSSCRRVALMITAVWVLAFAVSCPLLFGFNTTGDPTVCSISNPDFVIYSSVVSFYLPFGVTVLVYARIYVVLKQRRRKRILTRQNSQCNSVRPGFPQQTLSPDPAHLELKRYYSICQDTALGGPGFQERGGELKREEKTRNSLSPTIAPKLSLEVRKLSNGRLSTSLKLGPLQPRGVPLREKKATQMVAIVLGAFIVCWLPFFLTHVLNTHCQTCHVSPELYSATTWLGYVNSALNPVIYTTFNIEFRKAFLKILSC
Listing of entries alongside the reported Ki.
// return numeric value only (unit: nM, not printed)

[[record]]
compound = "O=C(NCCCCN1CCN(c2c(-c3ccccc3)sc3cc(F)ccc23)CC1)c1ccc(F)cc1 [compound 815883]"
readout_label = "Ki"
measured_number = 339

[[record]]
compound = "O=C(NCC(CO)CCN1CCN(c2csc3cc(C(F)(F)F)ccc23)CC1)c1ccc2[nH]ccc2c1 (stereo not drawn) [818931ES]"
readout_label = "Ki"
measured_number = 97.2


# input for lookup
Lab entry: cloned human dopamine D3 receptors (Homo sapiens, UniProt P35462) assay, compound O=C(NCC(CO)CCN1CCN(c2csc3cc(C(F)(F)F)ccc23)CC1)c1ccc2ccccc2c1 (stereo not drawn) [818929ES] , Ki = 201

###

target: cloned human dopamine D3 receptors (Homo sapiens); construct: expressed in transfected cells; membrane homogenate; test: [N-Methyl-3H]Spiroperidol binding to cloned human dopamine D3 receptors (Protocol 1); conditions: the 13th table, unit inferred; read-out: D3Ki
READOUT_LABEL: Ki (nM)
// return numeric value only (unit: nM, not printed)

Examples with their reported Ki follow.
[[record]]
line_notation = "O=C(NCCCCCN1CCC(c2noc3ccsc23)CC1)c1ccccc1[N+](=O)[O-]"
unit_descriptor = "nM"
measured_number = 182

[[record]]
line_notation = "O=C(NCCCCCN1CCCN(c2csc3cc(F)ccc23)CC1)c1ccc(-c2ccccn2)s1"
unit_descriptor = "nM"
measured_number = 15.8

[[record]]
line_notation = "COc1cccc(CC(=O)NCCCCN2CCCN(c3csc4cc(F)ccc34)CC2)c1"
unit_descriptor = "nM"
measured_number = 5.9


Lab entry: cloned human dopamine D3 receptors (Homo sapiens) assay, molecule O=C(/C=C/c1ccccc1)NCCCCN1CCCN(c2csc3cc(F)ccc23)CC1 , Ki = 0.489

Lab entry: cloned human dopamine D3 receptors (Homo sapiens) assay, molecule O=C(NCCCCN1CCCN(c2csc3cc(F)ccc23)CC1)c1cccc2[nH]ccc12 , Ki = 3.96

###

Listing of entries alongside the reported pKi.
molecular target: cloned human dopamine D3 receptors (Homo sapiens, UniProt P35462); construct: expressed in transfected cells; membrane homogenate; experiment: [N-Methyl-3H]Spiroperidol binding to cloned human dopamine D3 receptors (Protocol 1); settings: the 21st table; read-out: D3 Ki
Lab note — pKi values are minus log10 of concentrations in M.

Examples with their reported pKi follow.
[[record]]
molecule = "COc1ccc2[nH]c(C(=O)NCCCCN3[C@H](C)CN(c4csc5cc(F)ccc45)C[C@@H]3C)cc2c1 [compound 826960]"
readout_label = "pKi"
measured_number = 7.82

[[record]]
molecule = "C[C@@H]1CN(c2csc3cc(F)ccc23)C[C@H](C)N1CCCCNC(=O)c1ccncc1 [compound 826947]"
readout_label = "pKi"
measured_number = 7.32

[[record]]
molecule = "C[C@@H]1CN(c2csc3cc(F)ccc23)C[C@H](C)N1CCCCNC(=O)c1cccc(F)c1 [compound 827053]"
readout_label = "pKi"
measured_number = 7.27

[[record]]
molecule = "C[C@@H]1CN(c2csc3cc(C(F)(F)F)ccc23)C[C@H](C)N1CCCCNC(=O)c1cccc(Cl)c1 [compound 827038]"
readout_label = "pKi"
measured_number = 6.81


# input for lookup
Lab book: pKi of C[C@@H]1CN(c2csc3cc(C(F)(F)F)ccc23)C[C@H](C)N1CCCCNC(=O)c1cnc2ccccc2n1 [compound 826935] noted as 6.57

###

target: cloned human dopamine D3 receptors (Homo sapiens, UniProt P35462); construct: expressed in transfected cells; membrane homogenate; assay: [N-Methyl-3H]Spiroperidol binding to cloned human dopamine D3 receptors (Protocol 1); conditions: read-out: D3K1
Listing of entries alongside the reported log10(Ki).
Base-10 log of Ki, unit nM.

Examples with their reported log10(Ki) follow.
[[record]]
molecule = "O=C(COc1ccccc1)NC/C=C/CN1CCN(c2csc3cc(C(F)(F)F)ccc23)CC1"
readout_label = "log10(Ki)"
measured_number = 2.08

[[record]]
molecule = "COc1ccc(C(=O)N[C@@H](CO)CCCN2CCN(c3csc4cc(C(F)(F)F)ccc34)CC2)cc1"
readout_label = "log10(Ki)"
measured_number = 2.18

[[record]]
molecule = "O=C(NC/C=C/CN1CCN(c2csc3cc(C(F)(F)F)ccc23)CC1)c1ccc(F)cc1"
readout_label = "log10(Ki)"
measured_number = 1.71

[[record]]
molecule = "O=C(NCCCCN1CCN(c2csc3cc(C(F)(F)F)ccc23)CC1)c1ccc(F)cc1F"
readout_label = "log10(Ki)"
measured_number = 0.75

[[record]]
molecule = "O=C(NCCCCN1CCN(c2csc3cc(C(F)(F)F)ccc23)CC1)c1ccccc1C(F)(F)F"
readout_label = "log10(Ki)"
measured_number = 1.61


Lab book: log10(Ki) of CC1(C)C(CNC(=O)Cc2ccccc2)C1CN1CCN(c2csc3cc(C(F)(F)F)ccc23)CC1 (centres unmarked) noted as 1.86

Lab book: log10(Ki) of O=C(N[C@H](CO)CCCN1CCN(c2csc3cc(C(F)(F)F)ccc23)CC1)c1cnccn1 noted as 2.64

###

biological target: cloned human dopamine D3 receptors (Homo sapiens, UniProt P35462); construct: expressed in transfected cells; membrane homogenate; assay: [N-Methyl-3H]Spiroperidol binding to cloned human dopamine D3 receptors (Protocol 1); conditions: read-out: D3K1
pKi: −log10 of the molar value.
Tag: 1 if measured pKi is not below 8, 0 if it is.

Answered examples (4):
[[record]]
molecule = "COc1ccc(C(=O)NC(CO)CCCN2CCN(c3csc4cc(C(F)(F)F)ccc34)CC2)cc1OC (centres unmarked) [compound 815689]"
group_label = 0

[[record]]
molecule = "O=C(NCCCCN1CCN(c2c(Cl)sc3cc(F)ccc23)CC1)c1cccs1 [compound 815058]"
group_label = 1

[[record]]
molecule = "O=C(NC(CO)CCCN1CCN(c2csc3cc(C(F)(F)F)ccc23)CC1)c1cc2ccc(Cl)cc2s1 (centres unmarked) [compound 815686]"
group_label = 0

[[record]]
molecule = "O=C(NCCCCCN1CCN(c2csc3cc(C(F)(F)F)ccc23)CC1)c1cccc2ccccc12 [compound 826768]"
group_label = 0


Inquiry: Textbook exercise: given the entry O=C(N[C@@H](CO)CCCN1CCN(c2csc3cc(C(F)(F)F)ccc23)CC1)c1ccc2[nH]ccc2c1 [compound 815676] , state whether its pKi is greater than or equal to 8.
Reply text: 0

Inquiry: Textbook exercise: given the entry O=C(NCCCCN1CCN(c2c(Cl)sc3cc(F)ccc23)CC1)C(F)(F)F [compound 814854] , state whether its pKi is greater than or equal to 8.
Reply text: 0

Inquiry: Textbook exercise: given the entry O=C(NCCCCN1CCN(c2c(Cl)sc3cc(C(F)(F)F)ccc23)CC1)c1ccco1 [compound 815576] , state whether its pKi is greater than or equal to 8.
Reply text: 0

Inquiry: Textbook exercise: given the entry CC1(C)C(CNC(=O)c2ccccc2)C1CN1CCN(c2csc3cc(C(F)(F)F)ccc23)CC1 (centres unmarked) [compound 826275] , state whether its pKi is greater than or equal to 8.
Reply text: 0

Inquiry: Textbook exercise: given the entry O=C(NCCCCCCN1CCN(c2csc3cc(C(F)(F)F)ccc23)CC1)c1cccs1 [compound 826746] , state whether its pKi is greater than or equal to 8.
Reply text: 1

Inquiry: Textbook exercise: given the entry O=C(NCCCCCCN1CCN(c2csc3cc(C(F)(F)F)ccc23)CC1)c1cccc2ccccc12 [compound 826750] , state whether its pKi is greater than or equal to 8.
Reply text: 1

Inquiry: Textbook exercise: given the entry O=C(COCc1ccccc1)NC/C=C\CN1CCN(c2csc3cc(C(F)(F)F)ccc23)CC1 [compound 826349] , state whether its pKi is greater than or equal to 8.
Reply text: 0

Inquiry: Textbook exercise: given the entry O=C(NC/C=C/CN1CCN(c2csc3cc(C(F)(F)F)ccc23)CC1)c1ccccn1 [compound 827713] , state whether its pKi is greater than or equal to 8.
Reply text: 0

Inquiry: Textbook exercise: given the entry O=C(NCCCCN1CCN(c2c(Cl)sc3cc(C(F)(F)F)ccc23)CC1)c1ccc(C(F)(F)F)cc1 [compound 815575] , state whether its pKi is greater than or equal to 8.
Reply text: 0

Inquiry: Textbook exercise: given the entry O=C(N[C@H](CO)CCCN1CCN(c2csc3cc(C(F)(F)F)ccc23)CC1)c1ccc(-c2ccccc2)cc1 [compound 815694] , state whether its pKi is greater than or equal to 8.
Reply text: 0

###

target: cloned human dopamine D3 receptors (Homo sapiens, UniProt P35462); construct: expressed in transfected cells; membrane homogenate; assay: [N-Methyl-3H]Spiroperidol binding to cloned human dopamine D3 receptors (Protocol 1); settings: read-out: D3K1
The label True is reserved for Ki strictly under 10 nM; False covers values equal to or above it.

Answered examples (3):
[[record]]
molecule = "O=C(N[C@H](CO)CCCN1CCN(c2csc3cc(C(F)(F)F)ccc23)CC1)c1cc2ccccc2s1"
target_desc = "cloned human dopamine D3 receptors (Homo sapiens, UniProt P35462)"
group_label = "False"

[[record]]
molecule = "O=C(NC/C=C/CN1CCN(c2csc3cc(C(F)(F)F)ccc23)CC1)C1CCCCC1"
target_desc = "cloned human dopamine D3 receptors (Homo sapiens, UniProt P35462)"
group_label = "True"

[[record]]
molecule = "O=C(N[C@@H](CO)CCCN1CCN(c2csc3cc(C(F)(F)F)ccc23)CC1)c1ccc(Br)cc1"
target_desc = "cloned human dopamine D3 receptors (Homo sapiens, UniProt P35462)"
group_label = "False"


Inquiry: Bench note: check whether O=C(NCCCCN1CCN(c2csc3cc(C(F)(F)F)ccc23)CC1)c1cccs1 [compound 811708] shows Ki below 10 nM
Reply text: True

Inquiry: Bench note: check whether Cc1ccccc1C(=O)NCCCCCN1CCN(c2csc3cc(C(F)(F)F)ccc23)CC1 shows Ki below 10 nM
Reply text: True

Inquiry: Bench note: check whether O=C(NCCCCN1CCN(c2c(Cl)sc3cc(F)ccc23)CC1)c1c(F)cc(F)cc1F shows Ki below 10 nM
Reply text: True
